tested on: wild-type HIV-IIIB strain; assay: Antiviral analysis EGFP: anti-HIV activity in MT4 LTR-EGFP cells; type: cell-based, HIV-1; conditions: fluorescence of HIV-infected cells reduced by 50%, three days after infection
quantity-name: pEC50
A value of pEC50 is the negative decimal logarithm of a concentration given in moles per litre.

Give its pEC50 value. Item: `N#Cc1cc2ccc(OCCN3CCCC3)cc2n(-c2ccc([N+](=O)[O-])cc2)c1=O`
5.61

Give its pEC50 value. Item: `N#Cc1cc2ccc(-c3cn[nH]c3)cc2n(-c2ccc([N+](=O)[O-])cc2)c1=O`
6.15

Give its pEC50 value. Item: `CC(=O)NCc1cccc(-c2ccc3cc(C#N)c(=O)n(-c4ccc(C)c(C#N)c4)c3c2)c1`
5.65

Give its pEC50 value. Item: `N#Cc1cc2ccc(-c3ncco3)cc2n(-c2ccc([N+](=O)[O-])cc2)c1=O`
6.92

---
Give its pEC50 value. Item: `Cc1ccc(-n2c(=O)c(C#N)c(N)c3ccc(Cl)cc32)cc1C#N`
6.06

Give its pEC50 value. Item: `CN(C)CCCNc1c(C#N)c(=O)n(-c2ccc([N+](=O)[O-])cc2)c2ccccc12`
5.67

Give its pEC50 value. Item: `N#Cc1cc2ccc(OCCN3CCNCC3)cc2n(-c2ccc([N+](=O)[O-])cc2)c1=O`
5.44

Give its pEC50 value. Item: `Cc1ccc(-n2c(=O)c(C#N)c(N)c3ccc(-c4ccsc4)cc32)cc1C#N`
5.39

Give its pEC50 value. Item: `N#Cc1cc2ccc(-c3cccc(C(N)=O)c3)cc2n(-c2ccc([N+](=O)[O-])cc2)c1=O`
5.55

Give its pEC50 value. Item: `N#Cc1cc2ccccc2n(-c2ccc([N+](=O)[O-])cn2)c1=O`
5.32

Give its pEC50 value. Item: `N#Cc1cc2ccc(NCCN3CCCC3)cc2n(-c2ccc([N+](=O)[O-])cc2)c1=O`
5.91

====

tested on: wild-type HIV-IIIB strain; test: Antiviral analysis EGFP: anti-HIV activity in MT4 LTR-EGFP cells; type: cell-based, HIV-1; conditions: fluorescence of HIV-infected cells reduced by 50%, three days after infection
quantity-name: EC50

These solved cases illustrate the format of a correct answer.
Give its EC50 value. Item: `Cc1ccc2cc(C#N)c(=O)n(-c3ccc([N+](=O)[O-])cc3)c2c1`
> 100 µM

Give its EC50 value. Item: `N#Cc1c(N)c2cc3c(cc2n(-c2ccc(Cl)nc2)c1=O)OCO3`
> 32 µM

Give its EC50 value. Item: `N#Cc1cc2cc3c(cc2n(-c2ccc(Cl)nc2)c1=O)OCO3`
> 32 µM

Give its EC50 value. Item: `COCCNc1ccc2cc(C#N)c(=O)n(-c3ccc([N+](=O)[O-])cc3)c2c1`
> 32 µM

Give its EC50 value. Item: `N#Cc1c(N)c2cc(Cl)ccc2n(-c2ccc([N+](=O)[O-])cc2)c1=O`
> 100 µM

Attention now turns to another entry.
Give its EC50 value. Item: `N#Cc1ccc(-n2c(=O)c(C#N)cc3ccccc32)cc1`
> 32 µM
